Tested on: B16-BL6 melanoma cells
method-notes: Experimental metastasis test of B16-BL6 melanoma cells in lung
Type: in vivo, C57BL/6 female mice
details: Table 5; 1000 μg/mouse; day 14; PBS control 118 ± 15
The entries below come with measured Number of colonies (Mean ± SD) values attached.

Worked examples follow.
{"molecule": "CNC(=O)C(CC(=O)O)NC(=O)CC(=O)NC(CCCNC(=N)N)C(=O)O (stereo not shown)", "Number of colonies (Mean ± SD)": "24 ± 9"}
{"molecule": "CNC(=O)C(CCCNC(=N)N)NC(=O)CC(=O)NC(CC(=O)O)C(=O)O (stereo not shown)", "Number of colonies (Mean ± SD)": "19 ± 6"}
{"molecule": "CNC(=O)C(CCCNC(=N)N)NC(=O)CC(=O)NC(CC(=O)O)C(=O)NC (stereo not shown)", "Number of colonies (Mean ± SD)": "69 ± 7"}

Query molecule follows.
What value of Number of colonies (Mean ± SD) has been recorded for this entry: N=C(N)NCCC[C@H](NC(=O)CC(=O)N[C@@H](CC(=O)O)C(=O)O)C(=O)O
25 ± 8
